Attribution: ChEMBL document CHEMBL4354877

- Method Description: Intrinsic clearance in human liver microsomes at 0.5 uM incubated for 45 mins in presence of NADPH by LC-MS/MS analysis
- Type: ADME, Microsome
- Assay Conditions: 0.75 h
Reported Endpoint: CLH (mL/min/g)
Expressed in mL/min/g, but write only the number.

In the examples that follow, each entry is paired with its recorded CLH.
O=C(CCSc1nc2cc(Cl)ccc2o1)NC1CCCC1 = 11.3
O=C(CSc1nc2cc(Cl)ccc2o1)N1CCCC1 = 1.6
O=S1(=O)CCCN1CCCSc1nc2cc(Cl)ccc2o1 = 4.7
O=C(CCSc1nc2cc(F)ccc2o1)N1CCS(=O)(=O)CC1 = 0.4
Cc1ccc2oc(SCCC(=O)N3CCCC3)nc2c1 = 9.3
O=C(CCSc1nc2cc(Cl)ccc2o1)N1CCS(=O)(=O)C1 = 1.7

Exercise: # query: CLH of entry CN(CCC(=O)N1CCCC1)c1nc2cc(Cl)ccc2o1
Key: 1.9

* * *

- Method Description: Intrinsic clearance in mouse liver microsomes at 0.5 uM incubated for 45 mins in presence of NADPH by LC-MS/MS analysis
- Assay type: ADME, Microsome
- Assay Conditions: 0.75 h
Quick reference: log10(CLH) of the listed items.
Note the log scale: values are log10 of CLH expressed in mL/min/g.

O=C(CCCSc1nc2cc(Cl)ccc2o1)N1CCCC1 = 2.10
O=C(CCSc1nc2ccc(Cl)cc2o1)N1CCCC1 = 2.04
O=C(CCSc1nc2cc(N3CCOCC3)ccc2o1)N1CCCC1 = 1.27

Exercise: Report log10(CLH) for Cc1nc(SCCC(=O)N2CCCC2)oc1C please.
Key: 0.59

Exercise: O=C(CCSc1nc2cc(F)ccc2o1)N1CCCC1 ?
Key: 2.06

* * *

- Method Description: Solubility in pH 6.5 FaSSIF incubated for 4 hrs by HPLC-UV based assay
- Assay type: physicochemical
Recorded solubility at 4 h by entry

O=C(CCSc1nc2cc(Cl)ccc2o1)N1CCCC1 = 8 µg/mL

Exercise: Report solubility at 4 h for CN(C(=O)CCSc1nc2cc(Cl)ccc2o1)C1CCS(=O)(=O)CC1 please.
Key: 178 µg/mL

* * *

Entries and their Papp at 4 h
- Method Description: Permeability at pH 7.4 incubated for 4 hrs by PAMPA method
- Format: ADME
- Assay Conditions: read-out: permeability
A number alone suffices; assume ×10⁻⁶ cm/s.

O=C(CCSc1nc2cc(Cl)ccc2o1)N1CCCC1 = 78

Exercise: What does the record list as Papp at 4 h for CN(C(=O)CCSc1nc2cc(Cl)ccc2o1)C1CCS(=O)(=O)CC1 ?
Key: 44

* * *

- Method Description: Intrinsic clearance in mouse liver microsomes at 0.5 uM incubated for 45 mins in presence of NADPH by LC-MS/MS analysis
- Format: ADME, Microsome
- Assay Conditions: 0.75 h
Reported Endpoint: log10(CLH) (log10 of the value in mL/min/g)
Units before log transform: mL/min/g; reported quantity: CLH; transform: log10.

Exercise: So what's the measured log10(CLH) for this one? CN(C(=O)CCSc1nc2cc(F)ccc2o1)C1CCS(=O)(=O)CC1
Key: -0.22

Exercise: And the next one, COc1ccc2oc(SCCC(=O)N3CCCC3)nc2c1 ?
Key: 2.30

* * *

List of CLH values.
- Method Description: Intrinsic clearance in mouse liver microsomes at 0.5 uM incubated for 45 mins in presence of NADPH by LC-MS/MS analysis
- Type: ADME, Microsome
- Assay Conditions: 0.75 h
Number in mL/min/g, nothing else.

Would you please look over these solved cases?
CN1CCN(C(=O)CCSc2nc3cc(Cl)ccc3o2)CC1 = 41.5
O=C(CCSc1nc2cc(F)ccc2o1)N1CCS(=O)(=O)CC1 = 1.5
CCN(CC)C(=O)CCSc1nc2cc(Cl)ccc2o1 = 107.5
O=C(CSc1nc2cc(Cl)ccc2o1)N1CCCC1 = 153.6
O=C(CCSc1ncc(-c2ccccc2)o1)N1CCCC1 = 176.6

Exercise: Which value of CLH has been reported for CN(C(=O)CCSc1nc2cc(Cl)ccc2o1)C1CCS(=O)(=O)CC1 in the records?
Key: 0.7

Exercise: Here is the next molecule: O=C(CCSc1nc2cc(Cl)ccc2o1)N1CCS(=O)(=O)C1
Key: 8.9

* * *

- Method Description: Intrinsic clearance in human liver microsomes at 0.5 uM incubated for 45 mins in presence of NADPH by LC-MS/MS analysis
- Format: ADME, Microsome
- Assay Conditions: 0.75 h
Reported Endpoint: CLH

CS(=O)(=O)N1CCN(C(=O)CCSc2nc3cc(Cl)ccc3o2)CC1 = 0.6 mL/min/g
CCN(CC)C(=O)CCSc1nc2cc(Cl)ccc2o1 = 5.9 mL/min/g
O=C(CCSc1nc2ccc(Cl)cc2o1)N1CCCC1 = 6.6 mL/min/g
O=C(CCSc1nc2cc(Cl)ccc2o1)N1CCCC1 = 5.8 mL/min/g
O=C(CCSc1nc(-c2ccccc2)co1)N1CCCC1 = 20.9 mL/min/g

Exercise: What does the record list as CLH for O=C1CCCN1CCCSc1nc2cc(Cl)ccc2o1 ?
Key: 4.8 mL/min/g

Exercise: # iterate: CN(C(=O)CCSc1nc2cc(Cl)ccc2o1)C1CCS(=O)(=O)C1 (stereo unspecified)
Key: 1.5 mL/min/g

Exercise: Further, for O=C(CCCSc1nc2cc(Cl)ccc2o1)N1CCCC1 ?
Key: 3.4 mL/min/g

Exercise: Subsequent entry: O=C(CCCc1nc2cc(Cl)ccc2o1)N1CCCC1
Key: 1.4 mL/min/g

Exercise: Next entry: O=C(CCSc1nc2cc(F)ccc2o1)N1CCCC1
Key: 5.2 mL/min/g

Exercise: Same thing, different compound: CN1CCN(C(=O)CCSc2nc3cc(Cl)ccc3o2)CC1
Key: 1.5 mL/min/g

Exercise: Cool, now CN(C)C(=O)CCSc1nc2cc(Cl)ccc2o1
Key: 2.7 mL/min/g

Exercise: Then what about the compound O=C(CCSc1ncc(-c2ccccc2)o1)N1CCCC1 ?
Key: 11 mL/min/g

Exercise: Also check CS(=O)(=O)C1CCN(C(=O)CCSc2nc3cc(Cl)ccc3o2)CC1
Key: 0.5 mL/min/g

Exercise: Next entry: COc1ccc2oc(SCCC(=O)N3CCCC3)nc2c1
Key: 6.1 mL/min/g

Exercise: Likewise for O=C(CCSc1nc2cc(Cl)ccc2[nH]1)N1CCCC1 ?
Key: 9.2 mL/min/g

Exercise: Lookup O=C(CCSc1nc2ncccc2o1)N1CCCC1
Key: 0.7 mL/min/g

Exercise: Now the same for O=C(CCNc1nc2cc(Cl)ccc2o1)N1CCCC1
Key: 2.3 mL/min/g

Exercise: Next up: O=C(CSCc1nc2cc(Cl)ccc2o1)N1CCCC1
Key: 1.5 mL/min/g

Exercise: And then CC1CCCN1C(=O)CCSc1nc2cc(Cl)ccc2o1 (racemic) , what is it?
Key: 8.5 mL/min/g

Exercise: Likewise for Clc1ccc2oc(SCCCN3CCCC3)nc2c1 ?
Key: 1.9 mL/min/g

* * *

- Method Description: Intrinsic clearance in human liver microsomes at 0.5 uM incubated for 45 mins in presence of NADPH by LC-MS/MS analysis
- Format: ADME, Microsome
- Assay Conditions: 0.75 h
Reported Endpoint: CLH (mL/min/g)
Write down the numeric answer in mL/min/g and omit the unit.

Reference set, count: 2
O=C(CCSc1nc2cc(N3CCOCC3)ccc2o1)N1CCCC1 = 1.1
O=C(CCSc1nc2cc(Cl)ccc2o1)N1CCCCC1 = 10.7

Here's the next entry for you.
Exercise: Find the recorded CLH belonging to O=C(CCSc1nc2cc(Cl)ccc2o1)N1CCS(=O)(=O)CC1 and report it.
Key: 0.4

* * *

Quick reference: CLH of the listed items.
- Method Description: Intrinsic clearance in human liver microsomes at 0.5 uM incubated for 45 mins in presence of NADPH by LC-MS/MS analysis
- Assay type: ADME, Microsome
- Assay Conditions: 0.75 h
Just the number please, in mL/min/g, no unit attached.

Take a look at these entries with their results.
CSc1nc2cc(Cl)ccc2o1 = 19
O=C(CCSc1nc2c(Cl)cccc2o1)N1CCCC1 = 15.8
O=C(CCSc1nc2cc(Cl)ccc2o1)N1CCC1 = 3.7

Moving on to another molecule below.
Exercise: So what's the measured CLH for this one? O=C(CCSc1nc2cc(Cl)ccc2o1)N1CCC(F)(F)C1
Key: 11.3

* * *

Measured CLH values are reported for all entries that follow.
- Method Description: Intrinsic clearance in mouse liver microsomes at 0.5 uM incubated for 45 mins in presence of NADPH by LC-MS/MS analysis
- Format: ADME, Microsome
- Assay Conditions: 0.75 h
Field: numeric (mL/min/g). Do not append units.

Exercise: Which CLH is listed for O=C(CCSc1nc2cc(Cl)ccc2o1)N1CCC(F)(F)C1 ?
Key: 83.6

Exercise: Moving on to the next compound: O=C1CCCN1CCCSc1nc2cc(Cl)ccc2o1
Key: 51

Exercise: For O=C(CCSc1nc2cc(Cl)ccc2o1)N1CCS(=O)(=O)CC1 then?
Key: 2.3

Exercise: Then this compound: O=C(CCSc1nc2ncccc2o1)N1CCCC1
Key: 18.6

Exercise: One more compound: CC1CCCN1C(=O)CCSc1nc2cc(Cl)ccc2o1 (racemic)
Key: 98

Exercise: And then O=C(CCSc1nc2cc(Cl)ccc2o1)N1CCC1 , what is it?
Key: 17.9

Exercise: Same again, this time with O=C(CCSc1nc2cc(Cl)ccc2o1)N1CCCCC1
Key: 127.7
